Below, each of the compounds is paired with its reported pIC50 value.
Test system: pJNK in HCT-116 cells
Assay: Phospho-JNK (Thr183/Tyr185) Meso Scale ELISA assay, TNFα-stimulated HCT-116 cells
Type: cell-based
Details: Homo sapiens, read-out: mean HCT-116 pJNK ELISA IC50 (Col. B)
Protocol: Detailed below are ELISA assays for pJNK and p38, and a TAK1 biochemical assay. […] In Table 1, Col. Phospho-JNK (Thr183/Tyr185) Meso Scale ELISA Assay • 1. Plate HCT-116 cells at 25,000 per well in 100 uL in 96 well clear dishes in normal growth medium. Day 2: • 1. Aspirate medium and replace with 90 μl reduced serum growth medium (1% FCS), incubate for 2 hours at 37° C. • 2. Make drugs at 10× in reduced serum medium and add 10 uL per well. • 3. […] Read on Sector Imager. […] Read on Sector Imager. […]
pIC50: −log10 of the molar value. Counter-ions that a name gives are not always drawn.

Ask: Which measured pIC50 belongs to Cc1nn(CC(O)CO)c(C)c1-c1cnc(N)c2oc(-c3cccc4cnccc34)cc12 (centres unmarked) [Example 400] , tested on pJNK in HCT-116 cells?
Reply: 5.00 to 6.00

Ask: Which measured pIC50 belongs to CC(=O)N1CCC(n2cc(-c3cnc(N)c4oc(-c5cccc6[nH]ncc56)cc34)cn2)CC1 [Example 177] , tested on pJNK in HCT-116 cells?
Reply: 6.00 to 7.00

Ask: Which measured pIC50 belongs to C[C@]1(O)CC[C@@H](n2cc(-c3cnc(N)c4oc(-c5cccc6cnccc56)cc34)cn2)CC1 [Example 76] , tested on pJNK in HCT-116 cells?
Reply: 6.00 to 7.00

Ask: Which measured pIC50 belongs to CC(=O)N1CCC(n2cc(-c3cnc(N)c4oc(-c5ccc6c(cnn6C)c5)cc34)cn2)CC1 [Example 146] , tested on pJNK in HCT-116 cells?
Reply: 6.00 to 7.00

Ask: Which measured pIC50 belongs to Nc1ncc(-c2cnn([C@H]3CC[C@H](O)CC3)c2)c2c(Cl)c(-c3cccc4nnsc34)oc12 [Example 286] , tested on pJNK in HCT-116 cells?
Reply: > 7.00

Others:
Ask: Which measured pIC50 belongs to Cn1cc(-c2cnc(N)c3oc(-c4cccc5cnccc45)cc23)cn1 [Example 70] , tested on pJNK in HCT-116 cells?
Reply: 6.00 to 7.00

Ask: Which measured pIC50 belongs to Nc1ncc(-c2cnn(C3CCNCC3)c2)c2cc(-c3ccc4[nH]ncc4c3)oc12 [Example 18, hydrochloride] , tested on pJNK in HCT-116 cells?
Reply: 6.00 to 7.00

Ask: Which measured pIC50 belongs to CC(=O)N1CCC(n2cc(-c3cnc(N)c4oc(-c5cccc6c5CC(=O)N6)cc34)cn2)CC1 [Example 227] , tested on pJNK in HCT-116 cells?
Reply: 5.00 to 6.00

Ask: Which measured pIC50 belongs to CC(C)N1CCC(n2cc(-c3cnc(N)c4oc(-c5cccc6cnccc56)cc34)cn2)CC1 [Example 79] , tested on pJNK in HCT-116 cells?
Reply: 6.00 to 7.00

Ask: Which measured pIC50 belongs to CC(=O)N1CCC(n2cc(-c3cnc(N)c4oc(-c5ccc(O)cc5)cc34)cn2)CC1 [Example 120] , tested on pJNK in HCT-116 cells?
Reply: 6.00 to 7.00

Ask: Which measured pIC50 belongs to CC(=O)N1CCC(n2cc(-c3cnc(N)c4oc(-c5ccc(O)cc5C)cc34)cn2)CC1 [Example 135] , tested on pJNK in HCT-116 cells?
Reply: 6.00 to 7.00

Ask: Which measured pIC50 belongs to N#Cc1sc2cnccc2c1-c1cc2c(-c3cnn([C@H]4CC[C@H](O)CC4)c3)cnc(N)c2o1 [Example 270, trifluoroacetate] , tested on pJNK in HCT-116 cells?
Reply: > 7.00

Ask: Which measured pIC50 belongs to Nc1ncc(-c2cnn([C@H]3CC[C@H](O)CC3)c2)c2cc(-c3cccc4cnccc34)oc12 [Example 65] , tested on pJNK in HCT-116 cells?
Reply: > 7.00

Ask: Which measured pIC50 belongs to CC(=O)N1CCC(n2cc(-c3cnc(N)c4oc(-c5nn(C)c6cnccc56)cc34)cn2)CC1 [Example 363, trifluoroacetic acid salt] , tested on pJNK in HCT-116 cells?
Reply: 6.00 to 7.00

Ask: Which measured pIC50 belongs to CC(=O)N1CCC(n2cc(-c3cnc(N)c4oc(-c5ccc6occc6c5)cc34)cn2)CC1 [Example 114] , tested on pJNK in HCT-116 cells?
Reply: 6.00 to 7.00

Ask: Which measured pIC50 belongs to COCc1nc2cccc(-c3cc4c(-c5cnn([C@H]6CC[C@H](O)CC6)c5)cnc(N)c4o3)c2s1 [Example 349, Trifluoroacetate] , tested on pJNK in HCT-116 cells?
Reply: > 7.00

Ask: Which measured pIC50 belongs to Nc1ncc(-c2cnn([C@H]3CC[C@H](O)CC3)c2)c2cc(-c3csc4cnccc34)oc12 [Example 233] , tested on pJNK in HCT-116 cells?
Reply: > 7.00
